- test: Oral bioavailability in Sprague-Dawley rat
- Assay type: ADME, organism-based
- condition-context: in vivo
Recorded bioavailability values for a group of compounds are listed next.
Unit % implied. Number only.

O=C1[C@@H](NS(=O)(=O)c2ccc3cc(Cl)ccc3c2)CCN1c1ccc2c(c1)CCCNC2 10
CN1CCc2cc(N3CC[C@H](NS(=O)(=O)/C=C/c4ccc(Cl)s4)C3=O)ccc2C1 33
O=C1[C@@H](NS(=O)(=O)c2ccc3c(Cl)c[nH]c3c2)CCN1c1ccc2c(c1F)CCNC2 7
O=C1[C@@H](NS(=O)(=O)c2ccc3c(Cl)c[nH]c3c2)CCN1c1cc2c(cc1F)CNCC2 6
O=C1[C@@H](NS(=O)(=O)/C=C/c2ccc(Cl)s2)CCN1c1ccc2c(c1F)CCNC2 68
O=C1[C@@H](NS(=O)(=O)/C=C/c2ccc(Cl)s2)CCN1c1cc2c(cc1F)CNCC2 43
O=C1[C@@H](NS(=O)(=O)c2ccc3cc(Cl)ccc3c2)CCN1c1ccc2c(c1)CCNC2 24
O=C1[C@@H](NS(=O)(=O)c2ccc3cc(Cl)ccc3c2)CCN1c1cc2c(cc1F)CNCC2 28

Data request: Any idea what bioavailability was measured for `O=C1[C@@H](NS(=O)(=O)/C=C/c2ccc(Cl)s2)CCN1c1ccc2c(c1)CCCNC2` ?
Data returned: 45

Taken from ChEMBL document CHEMBL1687934.
